# credit: patent US20250376535A1

target: T1, 4-1BB Fc (human, UniProt Q07011 24-183); experiment: ELISA, 4-1BB Fc coated, VHH at 500 nM
T1 construct: also called rh-41BB; 41BB-hFc
T1 sequence (Q07011 24-183): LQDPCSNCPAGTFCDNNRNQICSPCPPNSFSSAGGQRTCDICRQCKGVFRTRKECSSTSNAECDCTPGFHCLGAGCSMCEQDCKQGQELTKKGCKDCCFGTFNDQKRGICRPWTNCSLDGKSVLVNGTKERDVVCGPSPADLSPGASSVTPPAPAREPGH
// reported OD450 per item

{"columns": ["binder", "OD450"],
 "data": [
  ["4-1BB-3 (VHH, not shown: small tags and cut ends) VHH: EVQLVESGGGLVQAGGSLRLSCAASGNIFSYNGMAWYRQAPGNQRELVAVVAIDGTAKYADTVKGRFTISRDNIKNTVNLEMNSLKPEDTAVYTCAALRNSGSTSWGQGTQVTVSS", 0.165],
  ["4-1BB-36 (VHH, not shown: small tags and cut ends) VHH: EVQLVESGGGLVQPGGSLRLSCAASRRTFSSYTAGWFRQAPGKEREFVASIRWISGTTTYADSVNGRFTISRDIAKNTVYLQMNSLKPDDTAVYYCAVDLSSDNDYDYWGQGTQVTVSS", 4.25],
  ["4-1BB-2 (VHH, not shown: small tags and cut ends) VHH: QVQLVESGGGLVQAGGSLRLSCAASGSIFSYNAMAWYRQAPGKQRELVALITSDRTTKYADSVKGRFTISRDDTKNTVDLEMNSLKPEDTAVYTCAALLNSARTSWGQGTQVTVSS", 0.112]
]}
